MEASUREMENT_TARGET: GLD52
PROTOCOL_SUMMARY: SPR
READOUT_TYPE: Kd (nM)
The figure you give is taken to be in nM; do not add the unit.

Give the measured Kd of GQNDTSQTSSPS [CD52 peptide 741] .
2.44
